# Protocol Notes: chemical genetic growth profiling, strain panel (AID 1159580);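 further: tested at 20 µM; growth read once vehicle control cultures reached saturation at 30 °C; lower values mean less growth of the strain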
# Condition Details: S. cerevisiae deletion strains, growth OD, locus YGR229C, strain SMI1
Screen size: about 5,500 compounds; about 2,000 (36%) were called active. About 18% were inconclusive and are not listed. No stated cut-off is given here; in the data, active means normalized growth mostly below about 0.91 (no sharp cut-off); inconclusive means no clear call, values can overlap the other calls; inactive means mostly above about 0.92. Some of the results follow.
Pick one: T = active, F = inactive

These solved cases illustrate the format of a correct answer.
O=C(O)/C(=C/c1c(C(=O)O)[nH]c2cc(Cl)cc(Cl)c12)c1ccccc1    F
O=C(O)c1cc(=O)c2cccc(O)c2[nH]1    F

-- ask Could you please tell me the result logged for `O=c1cc(C(F)(F)F)[nH]c2c(Cl)cccc12` in this assay?
-- reply T
